pKi: −log10 of the molar value.
Measured Endpoint: pKi

Problem: Under human M3 receptor (Homo sapiens (Human)): pKi value of O=C(NCCC1CCN(Cc2ccccc2)CC1)N1CCC(c2ccc(C(F)(F)F)cc2)CC1 ?
Result: 6.00 to 7.00

Problem: Record lookup: for human M3 receptor (Homo sapiens (Human)), what pKi belongs to C[C@@H]1CN(c2ncc(Br)cn2)CCN1C(=O)NCCC1CCN(Cc2ccccc2)CC1 ?
Result: 7.00 to 8.00

Problem: Please tell me: pKi of N#Cc1cnc(N2CC3CCC(C2)N3C(=O)NCCC2CCN(Cc3ccccc3)CC2)nc1 , system human M3 receptor (Homo sapiens (Human))?
Result: 6.00 to 7.00

Problem: Provide the documented pKi with human M3 receptor (Homo sapiens (Human)) as the system for C[C@@H]1CN(c2cnc(C(F)(F)F)cn2)C[C@H](C)N1C(=O)NCCC1CCN(Cc2ccccc2)CC1
Sequence (P20309 whole entry): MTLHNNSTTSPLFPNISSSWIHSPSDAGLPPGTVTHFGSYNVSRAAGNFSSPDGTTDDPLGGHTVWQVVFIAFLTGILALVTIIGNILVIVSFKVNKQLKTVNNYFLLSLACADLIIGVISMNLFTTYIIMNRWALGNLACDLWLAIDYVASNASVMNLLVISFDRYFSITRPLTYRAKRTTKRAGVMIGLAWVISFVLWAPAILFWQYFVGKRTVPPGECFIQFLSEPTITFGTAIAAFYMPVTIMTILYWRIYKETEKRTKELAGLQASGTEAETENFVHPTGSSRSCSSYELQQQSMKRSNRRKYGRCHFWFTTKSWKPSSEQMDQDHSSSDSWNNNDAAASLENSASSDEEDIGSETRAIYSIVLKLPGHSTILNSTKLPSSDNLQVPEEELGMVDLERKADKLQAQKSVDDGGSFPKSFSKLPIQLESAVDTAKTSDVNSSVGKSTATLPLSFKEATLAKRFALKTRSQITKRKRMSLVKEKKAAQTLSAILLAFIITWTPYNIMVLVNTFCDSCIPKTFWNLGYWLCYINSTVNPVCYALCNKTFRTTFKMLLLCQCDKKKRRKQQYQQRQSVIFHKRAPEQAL
Result: 6.00 to 7.00

Problem: Quick check: pKi on human M3 receptor (Homo sapiens (Human)), item Cc1nc(N2CCN(C(=O)NCCC3CCN(Cc4ccccc4)CC3)[C@H](C)C2)ccc1F ?
Result: < 6.00

Problem: human M3 receptor (Homo sapiens (Human)) / pKi / C[C@@H]1CN(c2nccc(C(F)(F)F)n2)CCN1C(=O)NCCC1CCN(Cc2ccccc2)CC1 : value?
Result: 6.00 to 7.00

Problem: Param readout= pKi; system= human M3 receptor (Homo sapiens (Human)); entry= C[C@@H]1CN(c2ncc(C#N)cn2)C[C@H](C)N1C(=O)NCCC1CCN(Cc2ccccc2)CC1 [21-15] ; returns value.
Result: < 6.00

Problem: State its pKi on human M3 receptor (Homo sapiens (Human)): Cc1c(C(=O)NCCC2CCN(Cc3ccccc3)CC2)cnc2cc(-c3cc(F)cc(F)c3)nn12
Result: < 6.00

Problem: Any idea what pKi came out for N#Cc1cc(N2CCC(C(=O)NCCC3CCN(Cc4ccccc4)CC3)CC2)ccc1OC(F)(F)F on human M3 receptor (Homo sapiens (Human))?
Result: < 6.00

Problem: // lookup pKi | system=human M3 receptor (Homo sapiens (Human)) | key= C[C@@H]1CN(c2ccc(OC(F)(F)F)c(C#N)c2)CCN1C(=O)NCCC1CCN(Cc2ccccc2)CC1
Result: < 6.00

Problem: Form field - read-out: pKi; system: human M3 receptor (Homo sapiens (Human)); submitted item: C[C@@H]1CN(c2ccc(OC(F)(F)F)cn2)CCN1C(=O)NCCC1CCN(Cc2ccccc2)CC1
Result: < 6.00

Problem: Return pKi measured with human M3 receptor (Homo sapiens (Human)) given this molecule: C[C@@H]1CN(c2ncc(C(F)(F)F)c(N)n2)CCN1C(=O)NCCC1CCN(Cc2ccccc2)CC1 [5-29]
Result: < 6.00

Problem: Provide value of pKi for this record tested with human M3 receptor (Homo sapiens (Human)): C[C@@H]1CN(c2cnc(C#N)nc2)CCN1C(=O)NCCC1CCN(Cc2ccccc2)CC1
Result: < 6.00

* * *

Target: human M2 receptor (Homo sapiens (Human), UniProt P08172)
Sequence (P08172 whole entry): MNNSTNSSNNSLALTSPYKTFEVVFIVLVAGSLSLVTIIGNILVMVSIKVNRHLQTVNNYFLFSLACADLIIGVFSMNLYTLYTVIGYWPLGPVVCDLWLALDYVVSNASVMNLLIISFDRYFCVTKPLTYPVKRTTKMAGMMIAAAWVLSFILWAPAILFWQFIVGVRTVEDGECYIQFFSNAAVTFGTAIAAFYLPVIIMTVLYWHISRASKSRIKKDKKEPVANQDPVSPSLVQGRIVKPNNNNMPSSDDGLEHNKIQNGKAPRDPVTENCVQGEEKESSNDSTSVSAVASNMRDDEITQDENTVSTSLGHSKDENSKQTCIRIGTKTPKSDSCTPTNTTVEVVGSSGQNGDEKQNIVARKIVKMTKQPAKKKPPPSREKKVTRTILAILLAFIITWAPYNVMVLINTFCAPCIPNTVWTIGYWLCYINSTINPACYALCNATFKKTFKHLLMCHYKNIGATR
Assay: Radioligand (tritiated N-methylscopolamine) binding assay, M2
Settings: CHO cell membranes expressing human M2; 1.5 nM tritiated N-methylscopolamine; 90 min, 37° C.; read-out: Ki against M2 receptor (Table 21, M2)
Give Ki for every item shown.

Problem: // returns reported Ki for input C[C@@H]1CN(c2cc(F)c(Cl)c(F)c2)CCN1C(=O)NCCC1CCN(Cc2ccccc2)CC1
Result: 10 to 100 nM

Problem: What does the data say about its Ki? Entry: O=C(NCCC1CCN(Cc2ccccc2)CC1)C1CCN(c2ccc(C(F)(F)F)cc2)CC1
Result: 100 to 1000 nM

Problem: # query: Ki of entry O=C(NCCC1CCN(Cc2ccccc2)CC1)C1CCN(c2cc(F)cc(F)c2)CC1
Result: 100 to 1000 nM

Problem: Looking for the measured Ki of C[C@H]1CN(c2ncc(C(F)(F)F)cn2)CCC1C(=O)NCCC1CCN(Cc2ccccc2)CC1 (stereo partly shown) , can you help?
Result: 10 to 100 nM
